Test: NCI Yeast Anticancer Drug Screen. Data for the sgs1 mgt1 strain (AID 161)
Conditions: S. cerevisiae sgs1 mgt1 strain, at 50.0 µM (retest, dose inferred, filed as 5.0)
About 79,000 compounds went through this panel and 15% of them were active in at least one assay; those are over-represented in the sample as a whole. The source made the active and inactive calls. No stated cut-off is given here; in the data, active means growth inhibition above about 70%; inactive means the rest.
Answer with one of the outcomes given here: Yes = active, No = inactive

Example results:
CC1=C(C)CC(C#N)(C#N)C(C#N)(C#N)C1 | Yes
O=C(CCBr)NC(=O)Oc1cccc2ccccc12 | No
CCOC(=O)/C(Cl)=C(\C)Nc1nc2c(ccc3ccccc32)s1 | No
Nc1ccccc1CC(c1c[nH]c2ccccc12)c1c[nH]c2ccccc12 | No

stdin: Test call for this compound, please: CCc1ccc2c(-c3ccccc3)c3ccccc3c(-c3ccccc3)c2c1
stdout: No

stdin: Test call for this compound, please: Cc1ccnc(NS(=O)(=O)c2ccc(N=Cc3c4ccccc4nc4cc(Cl)ccc34)cc2)n1
stdout: No

stdin: Test call for this compound, please: COC1OC2COC(c3ccccc3)OC2C(NC(=S)SCc2ccccc2)C1O (stereo unspecified)
stdout: Yes

stdin: Test call for this compound, please: COC(=O)C1=C(NC(=O)Nc2ccc(Cl)cc2)OC(C)(C)C1c1ccc(Cl)cc1 (stereo unspecified)
stdout: Yes

stdin: Test call for this compound, please: O=S(=O)(Nc1ccccn1)c1ccc(NCc2c3ccccc3nc3cc(Cl)ccc23)cc1
stdout: No

stdin: Test call for this compound, please: COc1ccc2oc(-c3ccc(OC)c(OC)c3OC)cc(=O)c2c1
stdout: No
